test: physchem; conditions: water

compound: CN1C(=C(O)Nc2ccccn2)C(=O)c2sc(Cl)cc2S1(=O)=O (stereo in doubt)
solubility: 10.4 µg/mL

====

assay: physchem; details: pH 1.2, simulated gastric fluid

compound: CN1C(=C(O)Nc2ccccn2)C(=O)c2sc(Cl)cc2S1(=O)=O (stereo in doubt) [lornoxicam]
resultUnit: µg/mL
solubility: 5.6
